A collection of molecules and their measured EC50
- targetDesc: human TRPA1 (Homo sapiens, UniProt O75762)
- Construct: Each full-length human TRPA1, TRPV1, TRPV4, and TRPM8 coding regions were introduced into a pcDNA4/TO vector
- Sequence (O75762 whole entry): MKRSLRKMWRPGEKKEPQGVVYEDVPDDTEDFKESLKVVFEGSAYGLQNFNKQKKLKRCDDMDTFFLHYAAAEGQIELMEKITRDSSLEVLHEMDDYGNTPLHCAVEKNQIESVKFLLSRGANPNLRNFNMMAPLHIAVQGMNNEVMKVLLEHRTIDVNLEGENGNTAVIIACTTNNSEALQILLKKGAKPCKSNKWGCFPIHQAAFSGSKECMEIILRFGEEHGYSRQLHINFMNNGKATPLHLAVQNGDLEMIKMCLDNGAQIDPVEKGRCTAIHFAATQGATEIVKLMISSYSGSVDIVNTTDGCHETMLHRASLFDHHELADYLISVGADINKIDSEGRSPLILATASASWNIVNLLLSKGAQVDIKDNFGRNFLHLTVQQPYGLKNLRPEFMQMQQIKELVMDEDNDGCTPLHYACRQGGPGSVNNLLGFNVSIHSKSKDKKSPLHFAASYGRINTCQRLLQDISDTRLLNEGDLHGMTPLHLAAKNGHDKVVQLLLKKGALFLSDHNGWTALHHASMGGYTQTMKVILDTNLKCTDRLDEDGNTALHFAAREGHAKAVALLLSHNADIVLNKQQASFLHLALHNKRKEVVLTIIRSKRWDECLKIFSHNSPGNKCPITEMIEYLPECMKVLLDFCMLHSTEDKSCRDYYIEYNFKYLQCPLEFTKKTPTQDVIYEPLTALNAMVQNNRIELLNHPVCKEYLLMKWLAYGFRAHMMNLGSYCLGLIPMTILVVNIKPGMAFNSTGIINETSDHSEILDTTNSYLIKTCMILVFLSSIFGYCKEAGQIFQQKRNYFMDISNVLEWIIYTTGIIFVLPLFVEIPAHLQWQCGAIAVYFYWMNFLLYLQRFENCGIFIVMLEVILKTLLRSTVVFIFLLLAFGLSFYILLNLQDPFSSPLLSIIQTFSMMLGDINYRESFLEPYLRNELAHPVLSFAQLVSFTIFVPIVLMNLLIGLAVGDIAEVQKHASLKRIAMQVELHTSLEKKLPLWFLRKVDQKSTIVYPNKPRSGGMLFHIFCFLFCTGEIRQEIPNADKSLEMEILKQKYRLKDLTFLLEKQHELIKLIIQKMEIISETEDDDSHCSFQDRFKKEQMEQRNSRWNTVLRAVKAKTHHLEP
- assayText: Ca2+ influx assay in TRPA1-expressing T-REx-293 cells
- testParameters: dose-response test, Ca2+ influx; read-out: EC50 Value against TRPA1
Report the figure in nM without appending any unit label.

# example entries with known answers
molecule: CCC(=O)c1cc2c(cc1OC)OCO2 [Methyl kakuol]
measurement: 270

molecule: c1cc2c(cc1[C@H]1OC[C@H]3[C@@H]1CO[C@@H]3c1ccc3c(c1)OCO3)OCO2 [Sesamin]
measurement: 2300

For the molecule shown here, c1cc2c(cc1[C@H]1OC[C@H]3[C@@H]1CO[C@H]3c1ccc3c(c1)OCO3)OCO2 [Asarinin, (−)-Asarinin] , give the reported EC50.
3100

For the molecule shown here, C/C=C/C=C\CC/C=C/C=C/C(=O)NCC(C)C [Amide A] , give the reported EC50.
470

----------
- assayText: Quantitative targeted LC-MS/MS pharmacokinetics of AR ingredients in rat plasma after oral MBST
- Assay type: in vivo
- testParameters: male, Sprague-Dawley; rat plasma, oral MBST 1 g/kg; read-out: Cmax
- Method: Seven-week-old male Sprague-Dawley rats were purchased from Charles River Laboratories (Yokohama, Japan) and Japan SLC (Hamamatsu, Japan). […] To quantify the plasma concentration of the AR components identified by the non-targeted analysis, the plasma samples at 0–24 h after MBST administration (1 or 2 g/kg) were supplied to targeted LC-MS/MS analysis in SRM mode with electrospray ionization. […]
reportedEndpoint: Cmax (ng/mL)
Report the figure in ng/mL without appending any unit label.

For the compound shown here, C/C=C/C=C\CC/C=C/C=C/C(=O)NCC(C)C [Amide A] , give the reported Cmax.
4.08

----------
- assayText: Quantitative targeted LC-MS/MS pharmacokinetics of AR ingredients in rat plasma after oral MBST
- Assay type: in vivo
- testParameters: male, Sprague-Dawley; rat plasma, oral MBST 2 g/kg; read-out: AUC0-last
reportedEndpoint: AUC(0-t) (ng·h/mL)
Report the figure in ng·h/mL without appending any unit label.

For the molecule shown here, C/C=C/C=C\CC/C=C/C=C/C(=O)NCC(C)C [Amide A] , give the reported AUC(0-t).
18.4

----------
- targetDesc: human TRPA1 (Homo sapiens, UniProt O75762)
- Construct: Each full-length human TRPA1, TRPV1, TRPV4, and TRPM8 coding regions were introduced into a pcDNA4/TO vector; expressed in transfected cells; host or cells: T-REx-293 cells (tetracycline-induced, pcDNA4/TO vector)
- assayText: Ca2+ influx assay in TRPA1-expressing T-REx-293 cells
- Format: cell-based
- testParameters: T-REx-293; 10 µmol/L test compound; relative to 20 µmol/L allyl isothiocyanate; read-out: % of Activation Compared to Positive Control against Each Subfamily of TRP Channel TRPA1
A collection of molecules and their measured activation at 10 µM
Report the figure in % without appending any unit label.

For the molecule shown here, Oc1cc(O)c2c(c1)O[C@H](c1cc(O)c(O)c(O)c1)[C@H](O)C2 [Epigallocatechin] , give the reported activation at 10 µM.
2

For the molecule shown here, c1cc2c(cc1[C@H]1OC[C@H]3[C@@H]1CO[C@@H]3c1ccc3c(c1)OCO3)OCO2 [Sesamin] , give the reported activation at 10 µM.
106

For the molecule shown here, O=C(O)CNC(=O)c1ccccc1 [Hippuric acid] , give the reported activation at 10 µM.
13

For the molecule shown here, CN[C@@H](C)[C@H](O)c1ccccc1 [Ephedrine, (1R,2S)-(−)-Ephedrine, reference compound] , give the reported activation at 10 µM.
3

For the molecule shown here, Oc1cc(O)c2c(c1)O[C@H](c1ccc(O)c(O)c1)[C@H](O)C2 [Epicatechin] , give the reported activation at 10 µM.
6

For the molecule shown here, C/C=C/C=C\CC/C=C/C=C/C(=O)NCC(C)C [Amide A] , give the reported activation at 10 µM.
96

For the molecule shown here, O=c1cc(-c2ccc(O)cc2)oc2cc(O)c([C@@H]3O[C@H](CO)[C@@H](O)[C@H](O)[C@H]3O)c(O)c12 [Isovitexin] , give the reported activation at 10 µM.
18

For the molecule shown here, CN[C@@H](C)[C@@H](O)c1ccccc1 [Pseudoephedrine, (S,S)-(+)-pseudoephedrine, reference compound] , give the reported activation at 10 µM.
4

For the molecule shown here, c1cc2c(cc1[C@H]1OC[C@H]3[C@@H]1CO[C@H]3c1ccc3c(c1)OCO3)OCO2 [Asarinin, (−)-Asarinin] , give the reported activation at 10 µM.
106

----------
- assayText: Quantitative targeted LC-MS/MS pharmacokinetics of AR ingredients in rat plasma after oral MBST
- Assay type: in vivo
- testParameters: male, Sprague-Dawley, rat, in vivo, po, 2 g/kg
A collection of compounds and their measured k el
Report the figure in s⁻¹ without appending any unit label.

compound: c1cc2c(cc1[C@H]1OC[C@H]3[C@@H]1CO[C@H]3c1ccc3c(c1)OCO3)OCO2 [Asarinin, (−)-Asarinin]
reportedEndpoint: k el
displayUnit: s⁻¹
measurement: 6.58e-05

For the compound shown here, "c1cc2c(cc1[C@H]1OC[C@H]3[C@@H]1CO[C@@H]3c1ccc3c(c1)OCO3)OCO2" , give the reported k el.
6.44e-05

----------
- targetDesc: human TRPM8 (Homo sapiens)
- Construct: Each full-length human TRPA1, TRPV1, TRPV4, and TRPM8 coding regions were introduced into a pcDNA4/TO vector; expressed in transfected cells; host or cells: T-REx-293 cells (tetracycline-induced, pcDNA4/TO vector)
- Sequence (Q7Z2W7 whole entry): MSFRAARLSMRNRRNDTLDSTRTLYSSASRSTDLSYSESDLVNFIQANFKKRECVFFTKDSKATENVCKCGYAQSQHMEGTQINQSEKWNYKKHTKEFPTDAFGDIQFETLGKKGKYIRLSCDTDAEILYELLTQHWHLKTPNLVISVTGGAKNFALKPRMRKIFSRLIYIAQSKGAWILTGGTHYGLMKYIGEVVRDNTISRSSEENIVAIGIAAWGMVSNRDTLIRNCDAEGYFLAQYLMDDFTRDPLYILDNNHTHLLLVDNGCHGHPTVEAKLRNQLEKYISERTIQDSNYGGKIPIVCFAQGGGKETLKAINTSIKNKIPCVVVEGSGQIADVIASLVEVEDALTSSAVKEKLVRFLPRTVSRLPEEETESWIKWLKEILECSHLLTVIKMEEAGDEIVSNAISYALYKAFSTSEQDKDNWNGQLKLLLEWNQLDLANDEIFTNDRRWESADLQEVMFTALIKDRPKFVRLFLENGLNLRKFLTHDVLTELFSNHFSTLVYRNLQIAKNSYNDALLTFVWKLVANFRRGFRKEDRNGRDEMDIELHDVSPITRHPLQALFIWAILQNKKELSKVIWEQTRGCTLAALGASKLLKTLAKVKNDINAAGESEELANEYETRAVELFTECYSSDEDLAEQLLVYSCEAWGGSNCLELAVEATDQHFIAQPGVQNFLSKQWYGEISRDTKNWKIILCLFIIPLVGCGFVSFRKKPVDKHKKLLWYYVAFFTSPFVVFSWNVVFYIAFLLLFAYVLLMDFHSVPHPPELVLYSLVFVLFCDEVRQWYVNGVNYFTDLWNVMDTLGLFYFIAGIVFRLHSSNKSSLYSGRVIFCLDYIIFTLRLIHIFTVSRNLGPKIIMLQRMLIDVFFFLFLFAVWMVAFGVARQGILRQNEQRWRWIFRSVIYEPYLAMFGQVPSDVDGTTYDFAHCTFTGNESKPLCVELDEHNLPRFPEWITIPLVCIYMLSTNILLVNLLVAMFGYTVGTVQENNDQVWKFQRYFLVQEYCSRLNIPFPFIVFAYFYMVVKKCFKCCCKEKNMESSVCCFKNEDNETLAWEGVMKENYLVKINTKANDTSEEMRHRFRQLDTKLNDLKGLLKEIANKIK
- assayText: Ca2+ influx assay in TRPM8-expressing T-REx-293 cells
- Type: cell-based
- testParameters: 10 µmol/L test compound; relative to 20 µmol/L icilin
reportedEndpoint: % of Activation Compared to Positive Control against Each Subfamily of TRP Channel TRPM8 (%)
Report the figure in % without appending any unit label.

For the compound shown here, CCN1C[C@]2(COC)[C@H](O)C[C@H](OC)[C@@]34[C@@H]5C[C@@]6(O)[C@H](OC(=O)c7ccccc7)[C@@H]5[C@@](O)([C@@H]([C@H](OC)[C@H]23)[C@@H]14)[C@@H](O)[C@@H]6OC [Benzoylaconitine] , give the reported % of Activation Compared to Positive Control against Each Subfamily of TRP Channel TRPM8.
3.6

For the compound shown here, C=C1[C@H]2C[C@@H]3[C@H]4N5C[C@@]6(C)[C@H]7[C@@H]5C[C@]3([C@@H]1O)[C@@](O)(C2)[C@]74C[C@@H](OC(=O)c1ccccc1)[C@@H]6O [Ignavine] , give the reported % of Activation Compared to Positive Control against Each Subfamily of TRP Channel TRPM8.
1.8

For the compound shown here, CC(C(O)c1ccccc1)[N+](C)(C)[O-] (stereo not drawn) [Methylephedrine N-oxide] , give the reported % of Activation Compared to Positive Control against Each Subfamily of TRP Channel TRPM8.
4.5

For the compound shown here, O.Oc1cc(O)c2c(c1)O[C@H](c1ccc(O)c(O)c1)[C@@H](O)C2 [Catechin] , give the reported % of Activation Compared to Positive Control against Each Subfamily of TRP Channel TRPM8.
4.0

For the compound shown here, CCC(=O)c1cc2c(cc1OC)OCO2 [Methyl kakuol] , give the reported % of Activation Compared to Positive Control against Each Subfamily of TRP Channel TRPM8.
2.8

For the compound shown here, O=c1cc(-c2ccc(O)cc2)oc2c([C@@H]3O[C@H](CO)[C@@H](O)[C@H](O)[C@H]3O)c(O)c([C@@H]3O[C@H](CO)[C@@H](O)[C@H](O)[C@H]3O)c(O)c12 [Vicenin-2] , give the reported % of Activation Compared to Positive Control against Each Subfamily of TRP Channel TRPM8.
6.5

----------
- assayText: Quantitative targeted LC-MS/MS pharmacokinetics of AR ingredients in rat plasma after oral MBST
- Format: in vivo
- testParameters: male, Sprague-Dawley, rat, in vivo, po, 2 g/kg
A collection of molecules and their measured Cmax
Report the figure in ng/mL without appending any unit label.

molecule: c1cc2c(cc1[C@H]1OC[C@H]3[C@@H]1CO[C@H]3c1ccc3c(c1)OCO3)OCO2 [Asarinin, (−)-Asarinin]
displayUnit: ng/mL
Cmax: 14.7

For the molecule shown here, "c1cc2c(cc1[C@H]1OC[C@H]3[C@@H]1CO[C@@H]3c1ccc3c(c1)OCO3)OCO2" , give the reported Cmax.
9.44

----------
- assayText: Quantitative targeted LC-MS/MS pharmacokinetics of AR ingredients in rat plasma after oral MBST
- Type: in vivo
- testParameters: male, Sprague-Dawley; rat plasma, oral MBST 2 g/kg; read-out: Cmax
- Description: Seven-week-old male Sprague-Dawley rats were purchased from Charles River Laboratories (Yokohama, Japan) and Japan SLC (Hamamatsu, Japan). […] To quantify the plasma concentration of the AR components identified by the non-targeted analysis, the plasma samples at 0–24 h after MBST administration (1 or 2 g/kg) were supplied to targeted LC-MS/MS analysis in SRM mode with electrospray ionization. […]
reportedEndpoint: Cmax
Param answer (str): number followed by unit.

For the molecule shown here, C/C=C/C=C\CC/C=C/C=C/C(=O)NCC(C)C [Amide A] , give the reported Cmax.
6.07 ng/mL
